# procedure.text: qHTS of pediatric cancer cell lines to identify multiple opportunities for drug repurposing: Primary screen for SJ-GBM2 cells (AID 1347091)
# condition.summary: SJ-GBM2 viability, CellTiter-Glo luminescence, 48 h; series mostly up to 46 µM
Inconclusive results are not listed. Active and inactive are the calls of the source. Calls follow the shape of the dose curve; as a rule, active = well fitted cell-killing curve with a large enough effect; inconclusive = small, poorly fitted or top-dose-only effect; inactive = no such curve, though single readings can be large or run the other way. Non-standard residues stand in square brackets, D forms with d. Residues, ends and D or L forms follow the SMILES beside them. *: point of attachment. Nva = CCC[C@H](N)C(=O)O; Cbz = O=C(OCc1ccccc1)*
Mark one answer only. Choices: active, inactive

Answered examples (8):
[[record]]
compound = "O=C(O)[C@H](CC(=O)N1C[C@@H]2CCCC[C@H]2C1)Cc1ccccc1"
assigned_label = "inactive"

[[record]]
compound = "Oc1ccc(-c2ccc(-c3cc(Nc4cccc(CNC5CC5)c4)n[nH]3)cc2)c(O)c1"
assigned_label = "active"

[[record]]
compound = "CCCNS(=O)(=O)Nc1ncnc(OCCOc2ncc(Br)cn2)c1-c1ccc(Br)cc1"
assigned_label = "inactive"

[[record]]
compound = "COc1ccc([C@@H]2CNC(=O)C2)cc1OC1CCCC1"
assigned_label = "inactive"

[[record]]
compound = "O=c1c(O)c(-c2ccc(O)c(O)c2)oc2cc(O)ccc12"
assigned_label = "active"

[[record]]
compound = "COc1ccc(CCC(=O)c2c(O)cc(O[C@@H]3O[C@H](CO)[C@@H](O)[C@H](O)[C@@H]3O[C@@H]3O[C@@H](C)[C@H](O)[C@@H](O)[C@@H]3O)cc2O)cc1O"
assigned_label = "inactive"

[[record]]
compound = "CCC[C@@H](C=O)NC(=O)[C@H](CC(C)C)NC(=O)[C@H](CC(C)C)NC(=O)OCc1ccccc1 (Cbz-Leu-Leu-[Nva]-aldehyde)"
assigned_label = "active"

[[record]]
compound = "COC(=O)C=CC(=O)OC"
assigned_label = "inactive"


Please look at the following compound next.
Field: outcome | Entry: CS(=O)(=O)N1CCc2c(-c3cnc(N)nc3)nc(N3CCOCC3)nc21
active

----------
# procedure.text: qHTS to identify inhibitors of the type 1 interferon - major histocompatibility complex class I in skeletal muscle: primary screen against the NCATS Mechanism Interrogation Plate v5.0 (MIPE) Libary (AID 1347411); also: nearly all actives have a fitted effect of over 65% in size; also: potency is read from the fitted curve at half-maximal effect
# condition.summary: iHSKM cells + IFN-b, HiBiT-tagged MHC-I luminescence, 24 h; series mostly up to 45.8 µM
Inconclusive results are not listed. Active and inactive are the calls of the source. Calls follow the shape of the dose curve; as a rule, active = well fitted inhibition curve with a large enough effect; inconclusive = small, poorly fitted or top-dose-only effect; inactive = no such curve, though single readings can be large or run the other way. Residues, ends and D or L forms follow the SMILES beside them. *: point of attachment. Cbz = O=C(OCc1ccccc1)*
attribute.measured: Potency

[[record]]
compound = "NC(=O)Nc1sc(-c2ccc(F)cc2)cc1C(N)=O"
result = "1650 nM (active)"

[[record]]
compound = "CCOc1cc2c(c(F)c1OCC)C(=N)N(CC(=O)c1cc(N3CCOCC3)c(OC)c(C(C)(C)C)c1)C2"
result = "14700 nM (active)"

[[record]]
compound = "Cn1cc(CNCC2CCN(c3ncc(C(=O)NO)cn3)CC2)c2ccccc21"
result = "117 nM (active)"

[[record]]
compound = "CC(C)C[C@@H](C=O)NC(=O)[C@H](CC(C)C)NC(=O)[C@H](CC(C)C)NC(=O)OCc1ccccc1 (Cbz-Leu-Leu-Leu-aldehyde)"
result = "2080 nM (active)"

[[record]]
compound = "CC(C(C)N1CC(=O)NC(=O)C1)N1CC(=O)NC(=O)C1 (configuration not stated)"
result = "inactive"

[[record]]
compound = "Cc1cc(Nc2ncc3c(n2)N(C)C(=O)N(c2cc(NC(=O)c4cccc(C(F)(F)F)c4)ccc2C)C3)n(C)n1"
result = "234 nM (active)"


Consider the record given below.
Looking up O=C(O)CCCCCC(=O)NN=C1CCCC1 , I see its Potency listed as inactive

----------
# procedure.text: Quantitative High-Throughput drug screen in 47 multiple myeloma cell lines against the NCATS MIPE library collection: XG1_PLB cell viability assay (AID 1919866); also: nearly all actives have a fitted effect of over 35% in size
# condition.summary: CellTiter-Glo ATP, 48 h; series mostly up to 45.8 µM
Records with an inconclusive call do not appear. Calls of active or inactive are those of the source. Calls come from the whole dose curve; as a rule, active = well fitted cell-killing curve with a large enough effect; inconclusive = small, poorly fitted or top-dose-only effect, or effect the other way; inactive = no such curve, though single readings can be large or run the other way.
Mark one answer only. Choices: True = active, False = inactive

[[record]]
compound = "C[C@H](O)[C@@H]1C(=O)N2C(C(=O)O)=C(S[C@@H]3CN[C@H](CNS(N)(=O)=O)C3)[C@@H](C)[C@@H]12"
assigned_label = "False"


Field: outcome | Entry: OCC(O)C(O)C(O)CO (centres undefined)
False

Field: outcome | Entry: C=C1CCC2[C@](C)(CO)C(O)CC[C@]2(C)C1CC=C1C(=O)OCC1O (some centres undefined)
False

Field: outcome | Entry: CCOc1cc2c(c(F)c1OCC)C(=N)N(CC(=O)c1cc(N3CCOCC3)c(OC)c(C(C)(C)C)c1)C2
True

----------
# Tested on: UISO
# procedure.text: qHTS assay to identify novel small-molecules to repurpose for Merkel cell carcinoma treatment (AID 1296009); also: nearly all actives have a fitted effect of over 60% in size
# condition.summary: MCC and control cell lines, CellTiter-Glo viability, 72 h; series mostly up to 46 µM
Records with an inconclusive call do not appear. The source made the active and inactive calls. The call rests on the fitted dose curve; in most records, active means well fitted inhibition curve with a large enough effect; inconclusive means small, poorly fitted or top-dose-only effect; inactive means flat fitted curve, though single readings scatter.
Mark one answer only. Choices: 1 for active, 0 for inactive

Answered examples (3):
[[record]]
test_smiles = "c1cc(CN2CCCNCCNCCCNCC2)ccc1CN1CCCNCCNCCCNCC1"
assigned_label = 0

[[record]]
test_smiles = "C[C@@]12C[C@@]3(O)O[C@@H](O1)[C@]1(COC(=O)c4ccccc4)[C@@H]3C[C@@]12O[C@@H]1O[C@H](CO)[C@@H](O)[C@H](O)[C@@H]1O"
assigned_label = 0

[[record]]
test_smiles = "C=C(C)[C@@H]1CC[C@]2(C)CC[C@]3(C)[C@H](CC[C@@H]4[C@@]5(C)CC[C@H](O)C(C)(C)[C@H]5CC[C@]43C)[C@@H]12"
assigned_label = 0


Please look at the following molecule next.
Field: outcome | Entry: CNC(=O)c1ccc(Nc2cc(Nc3ccccc3S(=O)(=O)C(C)C)c3cc[nH]c3n2)nc1
1

----------
# procedure.text: NS1 protein of Zika virus - qHTS assay to identify small molecule inhibitors in human HEK 293 cells (AID 1347053); also: nearly all actives have a fitted effect of over 55% in size
# condition.summary: HEK293 ZIKV MR766 infection, NS1 TR-FRET, 24 h; series mostly up to 46.1 µM
Inconclusive results are not listed. The source made the active and inactive calls. Calls follow the shape of the dose curve; as a rule, active = well fitted inhibition curve with a large enough effect; inconclusive = small, poorly fitted or top-dose-only effect; inactive = no such curve, though single readings can be large or run the other way.
Mark one answer only. Choices: 1.0 = active, 0.0 = inactive

Answered examples (2):
[[record]]
compound = "CCNC(=O)c1cc2c(-c3cc(OCCN4CCCC4)c(Cl)cc3Cl)nc(N)nc2s1"
assigned_label = 0.0

[[record]]
compound = "O=C(O)c1ccc(Nc2ncc3c(n2)-c2ccc(Cl)cc2C(c2c(F)cccc2F)=NC3)cc1"
assigned_label = 0.0


Field: outcome | Entry: C[C@@H]1CC[C@@]2(OC1)OC1CC3C4CC=C5CC(O)CCC5(C)C4CCC3(C)C1[C@@H]2C (stereo partly drawn)
0.0

Field: outcome | Entry: C[C@]12C=CC(=O)N[C@@H]1CC[C@H]1[C@H]3CC[C@@H](C(=O)Nc4cc(C(F)(F)F)ccc4C(F)(F)F)[C@@]3(C)CC[C@@H]12
0.0

Field: outcome | Entry: CCCCC(=O)O[C@]1(C(=O)CO)[C@@H](C)C[C@H]2[C@@H]3CCC4=CC(=O)C=C[C@]4(C)[C@@]3(F)[C@@H](O)C[C@@]21C
0.0

Field: outcome | Entry: CCS(=O)(=O)Nc1ccc2[nH]c(O)c(C(=Nc3ccc(CN4CCCCC4)cc3)c3ccccc3)c2c1
1.0

Field: outcome | Entry: CCOC(=O)N1CCN([N+]([O-])=NOc2ccc([N+](=O)[O-])cc2C#N)CC1
1.0

Field: outcome | Entry: Cc1cnc(NC(=O)Nc2cc(Br)c(C)cc2OC[C@@H]2CNCCO2)cn1
1.0

----------
# procedure.text: Quantitative High-Throughput drug screen in 47 multiple myeloma cell lines against the NCATS MIPE library collection: AMO1_DSMZ cell viability assay (AID 1918927; also: nearly all actives have a fitted effect of over 30% in size)
# condition.summary: AMO1 myeloma cells viability, CellTiter-Glo ATP luminescence, 48 h; series mostly up to 45.8 µM
Inconclusive results are not listed. The source made the active and inactive calls. The call rests on the fitted dose curve; in most records, active means well fitted cell-killing curve with a large enough effect; inconclusive means small, poorly fitted or top-dose-only effect, or effect the other way; inactive means no such curve, though single readings can be large or run the other way.
Mark one answer only. Choices: true (1) = active, false (0) = inactive

Field: outcome | Entry: C=Cc1c(C)c2cc3nc(cc4[nH]c(cc5nc(cc1[nH]2)C(C)=C5CCC(=O)O)c(CCC(=O)OC)c4C)[C@@]1(C)C3=CC=C(C(=O)OC)[C@H]1C(=O)OC
true (1)

Field: outcome | Entry: COc1cc([C@@H]2c3cc4c(cc3[C@H](O)[C@H]3COC(=O)[C@@H]23)OCO4)cc(OC)c1OC
true (1)

Field: outcome | Entry: C[C@H]1[C@@H](OC(=O)CCC(=O)O)O[C@@H]2O[C@@]3(C)CC[C@@H]4[C@H](C)CC[C@@H]1[C@@]24OO3
true (1)

Field: outcome | Entry: CC[C@H](CC[C@@H](C)[C@H]1CC[C@H]2[C@@H]3CC=C4C[C@@H](O)CC[C@]4(C)[C@@H]3CC[C@]12C)C(C)C
false (0)

Field: outcome | Entry: O=C1CSC(=O)N1C(CCc1ccncc1)COc1ccc(-c2cccc([N+](=O)[O-])c2)cc1 (stereo not given)
false (0)
